- System: Phytophthora infestans (Mont.) de Bary
- reported.conditions: read-out: IC50 in μM, Phythophtora Infestants; Figures 1B and 2C; 96-well plate; OD 405 nm seven days after inoculation; triplicate; IC50 from dose-response curves by linear regression

- substance: "Ac-LKKLLKKLLKKL-NH2 [Peptide 5, Ac-LKKLLKKLLKKL]"
  IC50 / µM: 5.4

====

- Tested on: Botrytis cinerea Pers.
- reported.conditions: read-out: Half maximal inhibitory concentration, Botrytis Cinerea
pIC50: −log10 of the molar value.

- substance: "Ac-LAKLLKAKAKAD-NH2 [Peptide 1]"
  pIC50: "< 4.30"
- substance: "Ac-(N-(2-(n-butylamino)-2-oxoethyl)-(cyclo-8,12))-[LAKLLKAKAKAD]-NH2 (sidechain bridge or staple) [Peptide 2]"
  pIC50: "< 4.30"
- substance: "Ac-(N-(2-(n-dodecylamino)-2-oxoethyl)-(cyclo-8,12))-[LAKLLKAKAKAD]-NH2 (sidechain bridge or staple) [Peptide 3]"
  pIC50: 5.01
- substance: "Ac-(cyclo-8,12))-[LAKLLKAKAKAD]-NH2 (sidechain bridge or staple) [Peptide 4]"
  pIC50: "< 4.30"

Where do the numbers come from? From paper PMC7070897.
